Target Or Test System: Full length Human HDAC6 (Homo sapiens, UniProt Q9UBN7)
Sequence (Q9UBN7 whole entry): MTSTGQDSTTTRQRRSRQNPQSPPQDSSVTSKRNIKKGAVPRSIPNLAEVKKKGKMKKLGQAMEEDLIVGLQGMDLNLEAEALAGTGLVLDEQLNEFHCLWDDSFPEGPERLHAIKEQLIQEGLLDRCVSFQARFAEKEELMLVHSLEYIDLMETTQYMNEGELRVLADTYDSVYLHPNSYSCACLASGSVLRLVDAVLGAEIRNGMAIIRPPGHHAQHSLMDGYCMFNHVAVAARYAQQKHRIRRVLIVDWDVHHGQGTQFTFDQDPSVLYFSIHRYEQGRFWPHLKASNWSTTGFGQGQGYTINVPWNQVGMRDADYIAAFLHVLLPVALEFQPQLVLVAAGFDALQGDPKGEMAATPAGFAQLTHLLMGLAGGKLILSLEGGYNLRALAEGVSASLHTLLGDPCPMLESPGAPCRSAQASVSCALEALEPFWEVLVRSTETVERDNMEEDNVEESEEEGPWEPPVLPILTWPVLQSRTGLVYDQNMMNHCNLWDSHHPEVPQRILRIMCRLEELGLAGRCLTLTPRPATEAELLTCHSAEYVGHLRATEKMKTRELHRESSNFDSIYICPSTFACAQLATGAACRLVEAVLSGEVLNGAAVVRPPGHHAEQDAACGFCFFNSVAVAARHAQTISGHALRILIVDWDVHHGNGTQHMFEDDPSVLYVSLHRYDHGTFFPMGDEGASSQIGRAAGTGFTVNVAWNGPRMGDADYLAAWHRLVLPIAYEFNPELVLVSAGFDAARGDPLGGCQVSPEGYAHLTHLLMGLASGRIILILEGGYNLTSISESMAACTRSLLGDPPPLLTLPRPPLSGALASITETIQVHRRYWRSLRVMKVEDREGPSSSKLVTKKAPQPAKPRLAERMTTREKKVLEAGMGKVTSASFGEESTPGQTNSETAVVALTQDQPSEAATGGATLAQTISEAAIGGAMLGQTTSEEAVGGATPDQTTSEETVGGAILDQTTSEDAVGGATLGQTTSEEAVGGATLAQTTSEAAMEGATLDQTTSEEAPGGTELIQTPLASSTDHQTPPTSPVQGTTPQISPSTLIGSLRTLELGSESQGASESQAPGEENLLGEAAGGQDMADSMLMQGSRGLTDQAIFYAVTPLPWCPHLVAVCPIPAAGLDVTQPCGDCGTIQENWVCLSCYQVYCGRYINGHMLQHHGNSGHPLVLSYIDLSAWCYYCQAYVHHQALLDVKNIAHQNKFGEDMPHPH
pIC50: −log10 of the molar value.
Each entry below carries its recorded pIC50.

CC[C@@H]1Cc2c(F)cc(C(=O)NO)cc2CN1CC1CCC2(CCC2)CC1 (single isomer, unassigned) [Compound 527] | 7.00 to 9.00
O=C(NO)c1cc(F)c2c(c1)CCN(C1CCOC3(CCC3)C1)C2 (single isomer, unassigned) [Compound 446] | 7.00 to 9.00
CC[C@@H]1Cc2c(F)cc(C(=O)NO)cc2CN1C[C@H]1CCCCO1 (single isomer, unassigned) [Compound 230] | 7.00 to 9.00
O=C(NO)c1cc(F)c2c(c1)CCN(C[C@H]1CCC3(CCCCC3)C1)C2 (single isomer, unassigned) [Compound 108] | 7.00 to 9.00

Hello, I am looking for reported pIC50 with Full length Human HDAC6 (Homo sapiens, UniProt Q9UBN7) for O=C(NO)c1ccc2c(c1)CN1CCCC[C@@H]1C2 [Compound 143] . Could you help?
6.00 to 7.00

Hello, I am looking for reported pIC50 with Full length Human HDAC6 (Homo sapiens, UniProt Q9UBN7) for CC[C@@H]1CCCN1Cc1ccc(C(=O)NO)cc1F [Compound 48] . Could you help?
7.00 to 9.00

Hello, I am looking for reported pIC50 with Full length Human HDAC6 (Homo sapiens, UniProt Q9UBN7) for CC[C@@H]1Cc2c(F)cc(C(=O)NO)cc2CN1C1CCCC1 (single isomer, unassigned) [Compound 580] . Could you help?
6.00 to 7.00

Reference source: patent US12655106B2
